Values were extracted from paper PMC2680345.

Test: Plasma concentrations
Format: in vivo
Conditions: human, oral, ritonavir AUC0–24, median, external dataset, 18 HIV-infected patients, atazanavir/ritonavir/saquinavir 200/100/1600 mg once daily
measured_parameter: AUC(0-t)
Provide a numeric answer, followed by its unit.

(Q) Look up AUC(0-t) of `CC(C)c1nc(CN(C)C(=O)N[C@H](C(=O)N[C@@H](Cc2ccccc2)C[C@H](O)[C@H](Cc2ccccc2)NC(=O)OCc2cncs2)C(C)C)cs1` and report it.
(A) 9060 ng·h/mL

###

Test: clinical
Conditions: both, human, in vivo
measured_parameter: Vd/F

(Q) Look up Vd/F of COC(=O)N[C@H](C(=O)N[C@@H](Cc1ccccc1)[C@@H](O)CN(Cc1ccc(-c2ccccn2)cc1)NC(=O)[C@@H](NC(=O)OC)C(C)(C)C)C(C)(C)C [atazanavir, Atazanavir] and report it.
(A) 103 L
